# Measured Target: T1, soluble recombinant HLA-DR2 molecules (MHC class II HLA-DR2 protein) (human)
# T1 construct: Soluble, empty protein from Drosophila S2 cells, captured on plates by antibody LB3.1; also called MHC class II DR2 protein; recombinant HLA-DR2 protein
# Measurement Notes: competition ELISA on soluble HLA-DR2; competitor biotinylated MBP 85-99 (0.13 µM)
Readout: IC50 (µM)

Worked examples follow.
> print(dat)
                                     binder  readout  assay.result
1   EAAAYKAYKAAAAAA [synthetic peptide #99]     IC50             5
2   AEEAYKAYAAAAAAA [synthetic peptide #53]     IC50           150
3  EKAKYEAYKAAAAAA [synthetic peptide #101]     IC50             3

(A) AEKAYAAYAAAAAAA [synthetic peptide #52]
(B) AAEAYKAYKAAAAAA [synthetic peptide #94]
(C) EAKAYEAYKAAAAAA [synthetic peptide #95]
(D) AKKAAEAYAAAAAAA [synthetic peptide #50]
(E) AKEAAAAYAAAAAAA [synthetic peptide #45]
Put the binders in ascending order of IC50. Lab note: final answer is the ordered label list. B, D, C, E, A
(B: 3 µM, D: 10 µM, C: 40 µM, E: 95 µM, A: 150 µM)

All figures here come from patent US20060020109A1.
